Listed below: GI50 values for each entry.
System: SK-OV-3
Assay: NCI tumour cell line growth inhibition, 48 h
Activity calls are given as the source filed them. No stated cut-off is given here; in the data, active = GI50 up to about 1.1 µM and inactive = higher.

[
  {
    "compound": "Cc1nn(C)cc1P(=S)(c1ccccc1)c1ccccc1",
    "systemName": "SK-OV-3",
    "measure": "GI50",
    "recordedValue": "24.8 µM (inactive)"
  },
  {
    "compound": "CN(C)C1(N(C)C)Oc2c(c(=O)n(C)c(=O)n2C)C(c2ccccc2Br)C1(F)F (stereo not given)",
    "systemName": "SK-OV-3",
    "measure": "GI50",
    "recordedValue": "> 100 µM (inactive)"
  },
  {
    "compound": "NN=C(CC(O)(C(F)(F)Cl)C(F)(F)Cl)CC(O)(C(F)(F)Cl)C(F)(F)Cl",
    "systemName": "SK-OV-3",
    "measure": "GI50",
    "recordedValue": "> 10 µM (inactive)"
  },
  {
    "compound": "O=C(O)c1cccc(S(=O)(=O)NN2C(=O)CSC2c2ccc(Cl)cc2Cl)c1 (stereo not given)",
    "systemName": "SK-OV-3",
    "measure": "GI50",
    "recordedValue": "> 100 µM (inactive)"
  }
]

Below: the item to evaluate.
Challenge: Request - read-out GI50 | tested on SK-OV-3 | compound O=C1C[C@H]2[C@H](c3ccc(Br)cc3)[C@H]3C(=O)c4ccccc4NC(=O)[C@@H]3[C@@]2(O)c2ccccc2N1
Response given: 21 µM (inactive)

====

System: ACHN
Assay: NCI tumour cell line growth inhibition, 48 h
Structures can show the parent of a compound that is named as a salt. Active and inactive are the calls of the source. Cut-off read from the data, not from the text of the source: active = GI50 up to about 1.1 µM and inactive = higher.
Response enum: active, inactive

Sample answers from the record:
[
  {
    "molecule": "COc1cc(/C=C2\\CCc3cc(OC)c(OC)cc3C2=O)cc(OC)c1",
    "qualitativeLabel": "inactive"
  },
  {
    "molecule": "CN1[C@@H]2CC[C@H]1C[C@@H](OC(c1ccccc1)c1ccccc1)C2 [BENZTROPINE MESYLATE]",
    "qualitativeLabel": "inactive"
  }
]

Challenge: For this molecule, state the assay outcome: Cn1c(=O)nc2n(-c3cc(C(F)(F)F)cc(C(F)(F)F)c3)c3ccccc3nc-2c1=O
Response given: inactive

Challenge: Next: COc1ccc(NC(=S)N/N=C(\c2ccccc2)c2ccccn2)cc1
Response given: active

Challenge: Next: Cc1cc(O)c2c(c1)C(C1c3cccc(O)c3C(=O)c3c(O)cc(C)cc31)c1cccc(O)c1C2=O (stereo not given)
Response given: active

Challenge: Next: COc1cc(C(c2ccc3c(c2)OCO3)C2SCCCS2)cc(OC)c1OC (stereo not given)
Response given: inactive

Challenge: Next: CC(C)(C)OC(=O)/C=C/C(=O)O/C=C/[N+](=O)[O-]
Response given: inactive

====

System: DU-145
Test: NCI tumour cell line growth inhibition, 48 h
Active and inactive are the calls of the source. No stated cut-off is given here; in the data, active = GI50 up to about 1.1 µM and inactive = higher.
Listed below: GI50 values for each entry.

[
  {
    "compound": "CC(C)Cn1cnc2c(SCc3ccccn3)nc(N)nc21",
    "GI50": "> 100 µM (inactive)"
  },
  {
    "compound": "CN(C(=O)[C@H](NC(=O)OCc1ccccc1)c1ccccc1)C1CCCCC1N1CCCC1 (stereo partly specified)",
    "GI50": "> 100 µM (inactive)"
  },
  {
    "compound": "O=C(CSc1nnc(SCC(=O)NN=C2CCCCC2)s1)NN=C1CCCCC1",
    "GI50": "> 100 µM (inactive)"
  },
  {
    "compound": "O=C1Nc2ccc(Br)cc2/C1=N/c1ccc(Cl)cc1",
    "GI50": "47.2 µM (inactive)"
  }
]

Challenge: For the compound shown here, COc1ccc(C[C@H]2COC(=O)[C@@H]2Cc2ccc(O)cc2)cc1OC , give the reported GI50.
Response given: > 100 µM (inactive)

Challenge: Next: C=C1C2CC3CCC2C(OC(=O)c2ccccc2C(=O)O)C13 (stereo unspecified)
Response given: > 100 µM (inactive)

Challenge: Next: O=C1c2ccccc2-c2c1c1ccccc1c(=O)n2Cc1ccccc1
Response given: 81.5 µM (inactive)

Challenge: Next: C[C@@H]1CC[C@@H]2[C@@H](C1)O[C@@H]([C@H](C)OCc1ccccc1)SC2(C)C
Response given: 37.3 µM (inactive)

Challenge: Next: O=C(NCCc1ccccc1)c1cc(/C=C/c2cc(O)ccc2O)ccc1O
Response given: 8.59 µM (inactive)

Challenge: Next: O=C(Nc1ccccc1)OCCN=c1c2ccccc2ccc2ccccc12
Response given: 28.8 µM (inactive)

Challenge: Next: COCCOCc1nc(C#N)c(N)o1
Response given: > 100 µM (inactive)

====

System: MOLT-4
Test: NCI tumour cell line growth inhibition, 48 h
Calls of active or inactive are those of the source. Cut-off read from the data, not from the text of the source: active = GI50 up to about 1.1 µM and inactive = higher.
Response enum: yes = active, no = inactive

[
  {
    "compound": "O=C1C[C@H]2[C@H](c3ccc(Br)cc3)[C@H]3C(=O)c4ccccc4NC(=O)[C@@H]3[C@@]2(O)c2ccccc2N1",
    "qualitativeLabel": "no"
  },
  {
    "compound": "NC(Cc1c[nH]c2ccc([N+](=O)[O-])cc12)C(=O)O (configuration not stated)",
    "qualitativeLabel": "no"
  },
  {
    "compound": "COc1cc(C(=O)N2CCc3c([nH]c4c([N+](=O)[O-])c(OC)ccc34)C2C)cc(OC)c1OC (configuration not stated)",
    "qualitativeLabel": "no"
  }
]

Challenge: For this compound, state the assay outcome: Cn1c(=O)nc2n(-c3cc(C(F)(F)F)cc(C(F)(F)F)c3)c3ccccc3nc-2c1=O
Response given: no

====

Tested on: HOP-92
Assay: NCI tumour cell line growth inhibition, 48 h
The source made the active and inactive calls. No stated cut-off is given here; in the data, active = GI50 up to about 1.1 µM and inactive = higher.
Response enum: active, inactive

[
  {
    "compound": "C=CCC12CC(=O)CCC1c1ccc(OC)cc1C2=O (configuration not stated)",
    "qualitativeLabel": "inactive"
  }
]

Challenge: For this compound, state the assay outcome: COc1cc(C2=NN(C)C(c3ccc([N+](=O)[O-])o3)C2)cc(OC)c1OC (configuration not stated)
Response given: inactive

Challenge: Next: CCOC(=O)c1cc(C#N)[nH]c1-c1ccsc1
Response given: inactive

Challenge: Next: Cc1cccc(C)c1N1C(=O)C(=O)C(c2nc3ccccc3s2)/C(=N/c2cccc3c(=O)[nH][nH]c(=O)c23)C1=O (configuration not stated)
Response given: inactive

Challenge: Next: Nc1ccc2c(c1)C(=O)c1c(F)cccc1-2
Response given: inactive

Challenge: Next: CN(Cc1ccccc1)C(=S)S [SODIUM BENZYL(METHYL)CARBAMODITHIOATE]
Response given: inactive

Challenge: Next: N#CC1=C(c2ccccc2)C(O)(c2ccccc2)NC1=O (configuration not stated)
Response given: inactive

====

System: ACHN
Test: NCI tumour cell line growth inhibition, 48 h
Calls of active or inactive are those of the source. Rule as the data show it: active = GI50 up to about 1.1 µM and inactive = higher.
Response enum: class 1 for active, class 0 for inactive

[
  {
    "compound": "COc1cc(/C=C/c2ccc(OC)c(OC)c2)cc(OC)c1 [(E)-3,4,3',5'-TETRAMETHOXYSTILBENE]",
    "qualitativeLabel": "class 0"
  },
  {
    "compound": "Cc1cccc(C)c1NC(=O)C(=O)CC(=O)CO",
    "qualitativeLabel": "class 0"
  },
  {
    "compound": "C=C[C@]1(C)CCC2=C(CCC3C2(C)CCC[C@@]3(C)COC(C)=O)C1 (stereo partly specified)",
    "qualitativeLabel": "class 0"
  },
  {
    "compound": "O=P(O)(O)OC1O[C@H](CO)[C@H](O)[C@H](O)[C@H]1O (stereo partly specified)",
    "qualitativeLabel": "class 0"
  },
  {
    "compound": "Cc1cc(N(CCC#N)CCC#N)ccc1/N=N/c1ccccc1[N+](=O)[O-]",
    "qualitativeLabel": "class 0"
  },
  {
    "compound": "S=C(N/N=C(/c1ccccc1)c1ccccn1)Nc1ccc(Cl)cc1",
    "qualitativeLabel": "class 1"
  },
  {
    "compound": "Cc1c(N)nc([C@H](CC(N)=O)NC[C@H](N)C(N)=O)nc1C(=O)N[C@H](C(=O)N[C@H](C)[C@@H](O)CC(=O)N[C@H](C(=O)NC(O[C@@H]1O[C@@H](C)[C@@H](N)[C@@H](O)[C@H]1O)C(O)c1nc(-c2nc(C(=O)NCCCCN)cs2)cs1)[C@@H](C)O)[C@@H](O[C@@H]1O[C@@H](CO)[C@@H](O)[C@H](O)[C@@H]1O[C@H]1O[C@H](CO)[C@@H](O)[C@H](OC(N)=O)[C@@H]1O)c1c[nH]cn1 (stereo partly specified)",
    "qualitativeLabel": "class 1"
  },
  {
    "compound": "C=CCC12CC(=O)CCC1c1ccc(OC)cc1C2=O (stereo unspecified)",
    "qualitativeLabel": "class 0"
  }
]

Challenge: For this compound, state the assay outcome: Cc1cc(=O)n2nc(SCc3ccccc3)sc2n1
Response given: class 0

Challenge: Next: CS(=O)(=O)N1CC(CCl)c2ccc(NO)cc21 (stereo unspecified)
Response given: class 0

Challenge: Next: Nc1nc(SCCc2ccccc2)nc2nc3c(c(-c4ccccc4)c12)CCCC3
Response given: class 0
